Target: Serine/threonine-protein kinase ULK1 (Homo sapiens) (UniProt O75385)
Sequence (whole entry): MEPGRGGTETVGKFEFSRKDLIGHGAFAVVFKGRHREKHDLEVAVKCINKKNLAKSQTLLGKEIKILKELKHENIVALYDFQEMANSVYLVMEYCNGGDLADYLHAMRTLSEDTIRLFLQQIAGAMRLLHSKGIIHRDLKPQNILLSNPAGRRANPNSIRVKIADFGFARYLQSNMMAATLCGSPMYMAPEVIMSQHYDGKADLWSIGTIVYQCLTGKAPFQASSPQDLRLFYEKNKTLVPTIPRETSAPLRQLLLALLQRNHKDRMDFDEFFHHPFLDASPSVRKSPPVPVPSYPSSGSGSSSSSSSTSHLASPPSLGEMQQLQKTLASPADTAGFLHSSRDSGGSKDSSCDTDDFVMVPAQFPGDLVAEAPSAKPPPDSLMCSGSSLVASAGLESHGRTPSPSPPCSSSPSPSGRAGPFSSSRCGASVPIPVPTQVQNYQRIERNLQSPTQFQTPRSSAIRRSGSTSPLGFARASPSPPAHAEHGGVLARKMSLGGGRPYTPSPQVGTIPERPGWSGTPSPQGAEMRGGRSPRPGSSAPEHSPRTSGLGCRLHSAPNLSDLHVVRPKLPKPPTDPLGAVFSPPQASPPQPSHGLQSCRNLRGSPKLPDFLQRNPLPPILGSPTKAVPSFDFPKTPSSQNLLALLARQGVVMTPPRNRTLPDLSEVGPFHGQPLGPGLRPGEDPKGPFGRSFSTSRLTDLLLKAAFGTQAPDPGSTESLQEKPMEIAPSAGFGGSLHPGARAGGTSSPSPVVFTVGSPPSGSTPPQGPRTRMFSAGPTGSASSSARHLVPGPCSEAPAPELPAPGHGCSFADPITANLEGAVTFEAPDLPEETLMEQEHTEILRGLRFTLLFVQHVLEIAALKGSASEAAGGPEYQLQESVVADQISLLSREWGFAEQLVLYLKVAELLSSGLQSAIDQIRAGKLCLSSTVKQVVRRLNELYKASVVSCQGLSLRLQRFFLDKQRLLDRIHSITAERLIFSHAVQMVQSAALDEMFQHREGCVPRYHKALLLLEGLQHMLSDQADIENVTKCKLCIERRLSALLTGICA
Assay: Induction of human recombinant N-terminal GST tagged-ULK1 (1 to 649 residues) kinase activity expressed in baculovirus infected insect Sf9 cells at 100 nM using MBP as substrate after 60 mins by ADP-glo assay relative to control
Entries and their measured Activity follow.
Write the value in % as a bare number.

Example cases with answers are listed next.
Cc1ccccc1NC(=O)[C@H](NCCc1cccc2ccccc12)c1ccccc1: 137
CN(C)c1ccc(CCN[C@@H](C(=O)Nc2ccc(F)cc2F)c2ccccc2)cc1: 149
Cc1ccccc1NC(=O)[C@H](NC(=O)Nc1ccccc1Cl)c1ccccc1: 30.4
COc1ccc(NC(=O)N[C@@H](C(=O)Nc2ccccc2C)c2ccccc2)cc1: 158
O=C(Nc1ccc(F)cc1F)[C@H](NCCc1cccc2ccccc12)c1ccccc1: 168
COc1ccc(CCNC(=O)N[C@@H](C(=O)Nc2cccc3ccccc23)c2ccccc2)cc1OC: 139

Prompt: Observed Activity on Serine/threonine-protein kinase ULK1 (Homo sapiens) (UniProt O75385) for Cc1ccccc1NC(=O)[C@H](NC(=O)Nc1cccc2ccccc12)c1ccccc1 , please.
Completion: 146

Prompt: Observed Activity on Serine/threonine-protein kinase ULK1 (Homo sapiens) (UniProt O75385) for COc1ccc(N2CCN(CC(OC(=O)c3cccc(C(F)(F)F)c3)c3ccccc3)CC2)cc1 (stereo not given) , please.
Completion: 162

Prompt: Observed Activity on Serine/threonine-protein kinase ULK1 (Homo sapiens) (UniProt O75385) for Cc1ccc(NC(=O)N[C@@H](C(=O)Nc2cc(F)ccc2F)c2ccccc2)cc1 , please.
Completion: 153

Prompt: Observed Activity on Serine/threonine-protein kinase ULK1 (Homo sapiens) (UniProt O75385) for COc1ccc(CCNC(=O)N[C@@H](C(=O)Nc2c(C)cccc2C)c2ccccc2)cc1OC , please.
Completion: 144
